Entry source: PubChem BioAssay AID1963835

# Lookup of reported viability, T/C keyed by entry
System: 699152-130-R-J1-PDC complex spheroid viability
Experiment: Anticancer human tumor 699152-130-R-J1-PDC patient-derived pancreatic carcinoma cell line growth inhibition [POLQ]
Conditions: second compound 10 µM; first compound 10 µM; hits give low values

[
  {
    "molecule": "CCc1cc2c(N3CCc4c(cc(Cn5ccnc5)cc4-c4cn(C)nc4C(F)(F)F)C3=O)cc(C)nc2c(OC)n1 + COC1C(OC(N)=O)C(O)C(Oc2ccc3c(O)c(NC(=O)c4ccc(O)c(CC=C(C)C)c4)c(=O)oc3c2C)OC1(C)C",
    "viability, T/C, %": 106
  },
  {
    "molecule": "COc1cc2cc(C(=O)CCC(=O)O)sc2cc1OC + Nc1ccc(C#CCN(C(=O)Cc2ncc(C(F)(F)F)cc2C(F)(F)F)c2ccc(F)cc2)nn1",
    "viability, T/C, %": 109
  },
  {
    "molecule": "CCc1cc2c(N3CCc4c(cc(Cn5ccnc5)cc4-c4cn(C)nc4C(F)(F)F)C3=O)cc(C)nc2c(OC)n1 + Nc1ccc(C#CCN(C(=O)Cc2ncc(C(F)(F)F)cc2C(F)(F)F)c2ccc(F)cc2)nn1",
    "viability, T/C, %": 115
  },
  {
    "molecule": "CNCc1ccc(-c2[nH]c3cc(F)cc4c3c2CCNC4=O)cc1 + Cc1cccc(N(C)C(=O)C2C(O)CCN2c2nc(C)cc(C(F)(F)F)c2C#N)c1",
    "viability, T/C, %": 116
  }
]

* * *

Tested on: 699152-130-R-J1-PDC complex spheroid viability
Assay: Anticancer human tumor 699152-130-R-J1-PDC cell line growth inhibition [POLQ];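 also: spheroids exposed to agents for 7 days before viability reading; percent of DMSO vehicle control viability so 100% = vehicle and 0% = no viable signal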
Conditions: second compound 0.1 µM; first compound 1 µM; hits give low values
reported.metric: viability, T/C

[
  {
    "compound": "COc1cc2cc(C(=O)CCC(=O)O)sc2cc1OC + Cc1cccc(N(C)C(=O)C2C(O)CCN2c2nc(C)cc(C(F)(F)F)c2C#N)c1",
    "reported.metric": "viability, T/C",
    "reading": "90.3%"
  },
  {
    "compound": "COc1cccc2c1C(=O)c1c(O)c3c(c(O)c1C2=O)CC(O)(C(=O)CO)CC3OC1CC(N)C(O)C(C)O1 (stereo not drawn) + Cc1cccc(N(C)C(=O)C2C(O)CCN2c2nc(C)cc(C(F)(F)F)c2C#N)c1",
    "reported.metric": "viability, T/C",
    "reading": "31.3%"
  },
  {
    "compound": "COc1ccc([C@@H](O)c2cc(-c3ncnc4cc(N5CCOCC5)ccc34)c(F)cc2Cl)nn1 + COC1C(OC(N)=O)C(O)C(Oc2ccc3c(O)c(NC(=O)c4ccc(O)c(CC=C(C)C)c4)c(=O)oc3c2C)OC1(C)C",
    "reported.metric": "viability, T/C",
    "reading": "83%"
  },
  {
    "compound": "C#Cc1c(F)ccc2cc(O)cc(-c3ncc4c(N5CC6CCC(C5)N6)nc(OCC56CCCN5CC(F)C6)nc4c3F)c12 (stereo not drawn) + Cc1cccc(N(C)C(=O)C2C(O)CCN2c2nc(C)cc(C(F)(F)F)c2C#N)c1",
    "reported.metric": "viability, T/C",
    "reading": "13.2%"
  },
  {
    "compound": "COc1cc(C2c3cc4c(cc3C(OC3OC5COC(C)OC5C(O)C3O)C3COC(=O)C23)OCO4)cc(OC)c1O (stereo not drawn) + Nc1ccc(C#CCN(C(=O)Cc2ncc(C(F)(F)F)cc2C(F)(F)F)c2ccc(F)cc2)nn1",
    "reported.metric": "viability, T/C",
    "reading": "70.5%"
  },
  {
    "compound": "O=C(c1cc(Cc2n[nH]c(=O)c3ccccc23)ccc1F)N1CCN(C(=O)C2CC2)CC1 + Nc1ccc(C#CCN(C(=O)Cc2ncc(C(F)(F)F)cc2C(F)(F)F)c2ccc(F)cc2)nn1",
    "reported.metric": "viability, T/C",
    "reading": "95.4%"
  },
  {
    "compound": "CCc1cc2c(N3CCc4c(cc(Cn5ccnc5)cc4-c4cn(C)nc4C(F)(F)F)C3=O)cc(C)nc2c(OC)n1 + COC1C(OC(N)=O)C(O)C(Oc2ccc3c(O)c(NC(=O)c4ccc(O)c(CC=C(C)C)c4)c(=O)oc3c2C)OC1(C)C",
    "reported.metric": "viability, T/C",
    "reading": "101%"
  },
  {
    "compound": "COc1cccc(OCCCN)c1-c1cc(Nc2cnc(C#N)cn2)n[nH]1 + Nc1ccc(C#CCN(C(=O)Cc2ncc(C(F)(F)F)cc2C(F)(F)F)c2ccc(F)cc2)nn1",
    "reported.metric": "viability, T/C",
    "reading": "56.1%"
  }
]

* * *

Tested on: 699152-130-R-J1-PDC complex spheroid viability
Assay: Anticancer human tumor 699152-130-R-J1-PDC cell line growth inhibition [POLQ];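 also: spheroids exposed to agents for 7 days before viability reading; percent of DMSO vehicle control viability so 100% = vehicle and 0% = no viable signal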
Conditions: second compound 0.316 µM; first compound 1 µM; hits give low values
Experimental: Multicellular complex tumor spheroid response to Polymerase (POL) inhibitors (novobiocin, ART-558, RP6685) in combination with a variety of drugs and investigational agents in selected tumor cell lines The POL inhibitors (novobiocin, ART-558, and RP6685) were evaluated both individually and in combination with standard of care and investigational anticancer small molecules within a complex spheroid model of solid tumors. . […]

[
  {
    "molecule": "CC1COCCN1c1cc(-c2ccnn2C)c2ccnc(-c3ccn[nH]3)c2n1 (configuration not stated) + Nc1ccc(C#CCN(C(=O)Cc2ncc(C(F)(F)F)cc2C(F)(F)F)c2ccc(F)cc2)nn1",
    "viability, T/C": "58.9%"
  },
  {
    "molecule": "Nc1ccn(C2OC(CO)C(O)C2(F)F)c(=O)n1 (configuration not stated) + Nc1ccc(C#CCN(C(=O)Cc2ncc(C(F)(F)F)cc2C(F)(F)F)c2ccc(F)cc2)nn1",
    "viability, T/C": "55.4%"
  },
  {
    "molecule": "CCCS(=O)(=O)Nc1ccc(F)c(C(=O)c2c[nH]c3ncc(-c4ccc(Cl)cc4)cc23)c1F + Cc1cccc(N(C)C(=O)C2C(O)CCN2c2nc(C)cc(C(F)(F)F)c2C#N)c1",
    "viability, T/C": "159%"
  },
  {
    "molecule": "O=C(Nc1ccc(O)c(NS(=O)(=O)c2ccc(F)cc2)c1)c1ccc(-c2ccccc2)cc1 + Nc1ccc(C#CCN(C(=O)Cc2ncc(C(F)(F)F)cc2C(F)(F)F)c2ccc(F)cc2)nn1",
    "viability, T/C": "101%"
  },
  {
    "molecule": "C#Cc1c(F)ccc2cc(O)cc(-c3ncc4c(N5CC6CCC(C5)N6)nc(OCC56CCCN5CC(F)C6)nc4c3F)c12 (configuration not stated) + Nc1ccc(C#CCN(C(=O)Cc2ncc(C(F)(F)F)cc2C(F)(F)F)c2ccc(F)cc2)nn1",
    "viability, T/C": "12.3%"
  },
  {
    "molecule": "C=CCn1c(=O)c2cnc(Nc3ccc(N4CCN(C)CC4)cc3)nc2n1-c1cccc(C(C)(C)O)n1 + Nc1ccc(C#CCN(C(=O)Cc2ncc(C(F)(F)F)cc2C(F)(F)F)c2ccc(F)cc2)nn1",
    "viability, T/C": "71.9%"
  },
  {
    "molecule": "CC1COCCN1c1cc(C2(S(C)(=N)=O)CC2)nc(-c2ccnc3[nH]ccc23)n1 (configuration not stated) + Nc1ccc(C#CCN(C(=O)Cc2ncc(C(F)(F)F)cc2C(F)(F)F)c2ccc(F)cc2)nn1",
    "viability, T/C": "94.4%"
  },
  {
    "molecule": "COc1cccc(OCCCN)c1-c1cc(Nc2cnc(C#N)cn2)n[nH]1 + COC1C(OC(N)=O)C(O)C(Oc2ccc3c(O)c(NC(=O)c4ccc(O)c(CC=C(C)C)c4)c(=O)oc3c2C)OC1(C)C",
    "viability, T/C": "46.1%"
  },
  {
    "molecule": "COc1cc(C2c3cc4c(cc3C(OC3OC5COC(C)OC5C(O)C3O)C3COC(=O)C23)OCO4)cc(OC)c1O (configuration not stated) + Nc1ccc(C#CCN(C(=O)Cc2ncc(C(F)(F)F)cc2C(F)(F)F)c2ccc(F)cc2)nn1",
    "viability, T/C": "69.1%"
  },
  {
    "molecule": "COc1cccc(OCCCN)c1-c1cc(Nc2cnc(C#N)cn2)n[nH]1 + Nc1ccc(C#CCN(C(=O)Cc2ncc(C(F)(F)F)cc2C(F)(F)F)c2ccc(F)cc2)nn1",
    "viability, T/C": "59.9%"
  },
  {
    "molecule": "COc1cc2cc(C(=O)CCC(=O)O)sc2cc1OC + Nc1ccc(C#CCN(C(=O)Cc2ncc(C(F)(F)F)cc2C(F)(F)F)c2ccc(F)cc2)nn1",
    "viability, T/C": "105%"
  },
  {
    "molecule": "COc1cccc2c1C(=O)c1c(O)c3c(c(O)c1C2=O)CC(O)(C(=O)CO)CC3OC1CC(N)C(O)C(C)O1 (configuration not stated) + Cc1cccc(N(C)C(=O)C2C(O)CCN2c2nc(C)cc(C(F)(F)F)c2C#N)c1",
    "viability, T/C": "29.6%"
  }
]
